B1: glmS ribozyme (parent)
chain: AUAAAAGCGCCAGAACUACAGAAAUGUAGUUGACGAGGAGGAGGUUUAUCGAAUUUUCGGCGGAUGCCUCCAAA

Variants of: B1
Assay summary: kcat; higher = faster cleavage; RNA array
Test context: with glucosamine-6-phosphate
Variants at the floor of the assay were thinned out.
Endpoint: kcat (s⁻¹)
The answer is to be given in s⁻¹; state only the numeric part.

Some solved entries appear below for comparison.
Prompt: Please report the recorded kcat for U54C C58G .
Completion: 5.26e-05

Prompt: Please report the recorded kcat for U54G C58U .
Completion: 0.000129

Prompt: Please report the recorded kcat for G60C C68A .
Completion: 1.32e-05

Prompt: Please report the recorded kcat for U46G C58A .
Completion: 0.000164

Prompt: Please report the recorded kcat for C16G A53C .
Completion: 0.000746

Prompt: Please report the recorded kcat for A39C U45C .
Completion: 0.000523

Prompt: Please report the recorded kcat for A12U U31A .
Completion: 0.0283

Prompt: Please report the recorded kcat for C16G U47G .
Completion: 0.000729

---
Prompt: Please report the recorded kcat for A14G U46A .
Completion: 0.0109

Prompt: Please report the recorded kcat for C11U C68A C71G .
Completion: 5.97e-05

Prompt: Please report the recorded kcat for A14C A52G U57G .
Completion: 0.000174

Prompt: Please report the recorded kcat for U31G U55C .
Completion: 0.00961

Prompt: Please report the recorded kcat for C16U A42U .
Completion: 0.000129

Prompt: Please report the recorded kcat for A12G A39G .
Completion: 0.0017

Prompt: Please report the recorded kcat for G38A U49A C58U .
Completion: 2.37e-05
